From: ChEMBL document CHEMBL4152326

As shown below, each of these compounds has a reported MIC value.
test system: Pseudomonas aeruginosa; assay: Antimicrobial activity against AmpC overproducing Pseudomonas aeruginosa SR24-12 in presence of human apo-transferrin by broth microdilution method; format: functional
Your answer is read as mg/L, so omit the unit and give the number.

* CC(C)(O/N=C(\C(=O)N[C@@H]1C(=O)N2C(C(=O)[O-])=C(C[N+]3(CCNC(=O)c4ccc(O)c(O)c4O)CCCC3)CS[C@H]12)c1csc(N)n1)C(=O)O | 2

For reference, reported MIC for "CC(C)(O/N=C(\C(=O)N[C@@H]1C(=O)N2C(C(=O)[O-])=C(C[N+]3(CCNC(=O)c4cc(=O)c(O)cn4O)CCCC3)CS[C@H]12)c1csc(N)n1)C(=O)O" stands at 0.5

For reference, reported MIC for "CC(C)(O/N=C(\C(=O)N[C@@H]1C(=O)N2C(C(=O)[O-])=C(C[N+](C)(C)[C@@H]3CCN(C(=O)c4ccc(O)c(O)c4Cl)C3)CS[C@H]12)c1csc(N)n1)C(=O)O" stands at 0.5

###

tested on: Acinetobacter baumannii; test: Antimicrobial activity against OXA-23/OXA-58 producing Acinetobacter baumannii SR27323 in presence of human apo-transferrin by broth microdilution method; type: functional
metric: MIC
Quick note: unit goes after the number.

* CC(C)(O/N=C(\C(=O)N[C@@H]1C(=O)N2C(C(=O)[O-])=C(C[N+]3(CCNC(=O)c4cccc(O)c4O)CCCC3)CS[C@H]12)c1csc(N)n1)C(=O)O | 1 µg/mL
* CC(C)(O/N=C(\C(=O)N[C@@H]1C(=O)N2C(C(=O)[O-])=C(C[N+]34CCC(CNC(=O)c5ccc(O)c(O)c5Cl)(CC3)CC4)CS[C@H]12)c1csc(N)n1)C(=O)O | 1 µg/mL

Here's the next entry for you.
For reference, reported MIC for "COc1c(C(=O)NCC[N+]2(CC3=C(C(=O)[O-])N4C(=O)[C@@H](NC(=O)/C(=N\OC(C)(C)C(=O)O)c5csc(N)n5)[C@H]4SC3)CCCC2)ccc(O)c1O" stands at 1 µg/mL

###

system: Pseudomonas aeruginosa; experiment: Antimicrobial activity against AmpC overproducing Pseudomonas aeruginosa SR24-12 in presence of human apo-transferrin by broth microdilution method; type: functional
metric: log10 of MIC (log10 of the value in µg/mL)
For clarity, the numbers are log10 values of MIC expressed in µg/mL.

For reference, reported log10 of MIC for "Nc1nc(/C(=N/O[C@H](C(=O)O)c2ccccc2)C(=O)N[C@@H]2C(=O)N3C(C(=O)[O-])=C(C[N+]4(CCNC(=O)c5ccc(O)c(O)c5Cl)CCCC4)CS[C@H]23)cs1" stands at -0.60

For reference, reported log10 of MIC for "CO/N=C(\C(=O)N[C@@H]1C(=O)N2C(C(=O)[O-])=C(C[N+]3(C)CCCC3)CS[C@H]12)c1csc(N)n1" stands at 1.20

For reference, reported log10 of MIC for "C[N+]1(CC2=C(C(=O)[O-])N3C(=O)[C@@H](NC(=O)/C(=N\O[C@@H](CNC(=O)c4ccc(O)c(O)c4Cl)C(=O)O)c4csc(N)n4)[C@H]3SC2)CCCC1" stands at -0.30

For reference, reported log10 of MIC for "Nc1nc(/C(=N/O[C@@H](CC(=O)O)C(=O)O)C(=O)N[C@@H]2C(=O)N3C(C(=O)[O-])=C(C[N+]4(CCNC(=O)c5ccc(O)c(O)c5Cl)CCCC4)CS[C@H]23)cs1" stands at -0.60

For reference, reported log10 of MIC for "CC(C)(O/N=C(\C(=O)N[C@@H]1C(=O)N2C(C(=O)[O-])=C(C[N@+]34CCC[C@H]3CN(C(=O)c3ccc(O)c(O)c3Cl)CC4)CS[C@H]12)c1csc(N)n1)C(=O)O" stands at -0.30

For reference, reported log10 of MIC for "CC(C)(O/N=C(\C(=O)N[C@@H]1C(=O)N2C(C(=O)[O-])=C(C[N+]3(CCNC(=O)c4cc(O)c(O)cc4Cl)CCCC3)CS[C@H]12)c1csc(N)n1)C(=O)O" stands at -0.90

For reference, reported log10 of MIC for "C[N+]1(CC2=C(C(=O)[O-])N3C(=O)[C@@H](NC(=O)/C(=N\OC[C@H](NC(=O)c4ccc(O)c(O)c4Cl)C(=O)O)c4csc(N)n4)[C@H]3SC2)CCCC1" stands at 0.00

For reference, reported log10 of MIC for "CC(C)(O/N=C(\C(=O)N[C@@H]1C(=O)N2C(C(=O)[O-])=C(C[n+]3cc(NC(=O)c4ccc(O)c(O)c4Cl)c4n3CCN4)CS[C@H]12)c1csc(N)n1)C(=O)O" stands at -0.30

For reference, reported log10 of MIC for "CC(C)(O/N=C(\C(=O)N[C@@H]1C(=O)N2C(C(=O)[O-])=C(C[N+](C)(C)CCNC(=O)c3ccc(O)c(O)c3Cl)CS[C@H]12)c1csc(N)n1)C(=O)O" stands at 0.60

For reference, reported log10 of MIC for "C[C@@H](C[N+]1(CC2=C(C(=O)[O-])N3C(=O)[C@@H](NC(=O)/C(=N\OC(C)(C)C(=O)O)c4csc(N)n4)[C@H]3SC2)CCCC1)NC(=O)c1ccc(O)c(O)c1Cl" stands at -0.60

For reference, reported log10 of MIC for "C[C@H](O/N=C(\C(=O)N[C@@H]1C(=O)N2C(C(=O)[O-])=C(C[N+]3(CCNC(=O)c4ccc(O)c(O)c4Cl)CCCC3)CS[C@H]12)c1csc(N)n1)C(=O)O" stands at -0.60
